- target: GST-fused GRP78 substrate binding domain (Homo sapiens, UniProt P11021)
- Construct: GRP78-SBD (GRP78 409–651); made in house
- Sequence (P11021 409-651): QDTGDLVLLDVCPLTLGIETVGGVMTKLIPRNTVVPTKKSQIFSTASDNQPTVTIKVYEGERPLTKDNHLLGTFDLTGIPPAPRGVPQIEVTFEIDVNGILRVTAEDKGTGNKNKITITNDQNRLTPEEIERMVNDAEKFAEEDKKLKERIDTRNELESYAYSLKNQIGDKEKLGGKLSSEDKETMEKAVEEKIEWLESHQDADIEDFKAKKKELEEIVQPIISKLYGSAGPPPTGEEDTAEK
- protocol_details: Fluorescence polarization competition assay
- test_conditions: displacement of 10 nM FITC-labeled Bag-1 7-mer from 0.75 mg/ml GST-GRP78 SBD; competitor 100 µM to 0.1 nM, Tris-GSH buffer
pIC50: −log10 of the molar value. Where no end group is shown, it is not given here.
readout_type: pIC50

Task: Specify pIC50 for RAAAIGK [RAAAIGK] , system GST-fused GRP78 substrate binding domain (Homo sapiens, UniProt P11021).
Result: < 4.00
